tested on: aspartate aminotransferase (AST); assay: Hepatoprotection study, serum AST, alcohol 5 days; assay type: in vivo, Wistar albino rats; details: Pro: Protection (%), rats, alcohol 4 gm/kg/day p.o.
Where a SMILES comes first, the peptide text is derived from it.
This section presents molecules with their documented AST Pro values.
The figure you give is taken to be in %; do not add the unit.

C[C@H](N)C(=O)N[C@@H](CCC(N)=O)C(=O)O [0.5 DP, L-Ala-L-Gln] (H-Ala-Gln-OH): 5.86
C[C@H](N)C(=O)N[C@@H](CCC(N)=O)C(=O)O [1.5 DP, L-Ala-L-Gln] (H-Ala-Gln-OH): 20.25

# evaluate next
Lab note: measured AST Pro of CC1(C(=O)O)CCC2(C)CCC3(C)C(=CC(=O)C4C5(C)CCC(OC6OC(C(=O)O)C(O)C(O)C6OC6OC(C(=O)O)C(O)C(O)C6O)C(C)(C)C5CCC43C)C2C1 (stereo not drawn) [0.3 GA, 18β-GA] was 20.46
